These measurements were taken from patent US12139492B2.

target: BTK (Homo sapiens, UniProt Q06187); experiment: BTK degradation, DC50 and Dmax of Table 1 (cell line not given); type: cell-based; parameters: endogenous in cells; conditions: concentration giving 50% reduction of BTK expression level
Sequence (Q06187 whole entry): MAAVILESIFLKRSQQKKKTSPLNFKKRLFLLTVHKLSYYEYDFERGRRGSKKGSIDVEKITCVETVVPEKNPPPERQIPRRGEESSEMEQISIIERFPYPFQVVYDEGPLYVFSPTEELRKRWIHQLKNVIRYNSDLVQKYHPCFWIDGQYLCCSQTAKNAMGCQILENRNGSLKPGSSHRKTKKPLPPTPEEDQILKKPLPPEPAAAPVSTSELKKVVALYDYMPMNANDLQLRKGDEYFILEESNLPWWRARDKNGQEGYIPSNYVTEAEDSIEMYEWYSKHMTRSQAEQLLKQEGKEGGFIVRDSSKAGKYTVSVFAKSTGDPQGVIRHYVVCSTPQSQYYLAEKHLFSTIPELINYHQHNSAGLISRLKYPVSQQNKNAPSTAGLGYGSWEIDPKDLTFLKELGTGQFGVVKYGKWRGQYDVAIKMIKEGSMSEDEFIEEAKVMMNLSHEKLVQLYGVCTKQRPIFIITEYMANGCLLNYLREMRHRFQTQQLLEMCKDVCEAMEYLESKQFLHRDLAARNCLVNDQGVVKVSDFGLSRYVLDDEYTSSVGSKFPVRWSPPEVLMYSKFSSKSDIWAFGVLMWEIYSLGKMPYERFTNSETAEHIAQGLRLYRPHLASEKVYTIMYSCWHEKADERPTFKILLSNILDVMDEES
Hi there, I'd appreciate the recorded DC50 for every entry that follows.

Entry Nc1ncnc2c1c(-c1ccc(Oc3ccccc3)cc1)nn2[C@@H]1CCCN(C(=O)N2CCC(C3CCN(c4ccc5c(c4)C(=O)N(C4CCC(=O)NC4=O)C5=O)CC3)CC2)C1 (stereo partly shown) — recorded DC50 = 10 to 50 nM

Documented DC50 of Nc1ncnc2c1c(-c1ccc(Oc3ccccc3)cc1)nn2[C@@H]1CCCN(C2CCN(CCN3CCC(c4ccc5c(c4)CN(C4CCC(=O)NC4=O)C5=O)CC3)CC2)C1 (stereo partly shown) : 10 to 50 nM

For Nc1ncnc2c1c(-c1ccc(Oc3ccccc3)cc1)nn2C1CCCN(CCOCCC2CCN(c3ccc4c(c3)C(=O)N(C3CCC(=O)NC3=O)C4=O)CC2)C1 (stereo not shown) the compound record lists DC50 as > 50 nM

Query Nc1ncnc2c1c(-c1ccc(Oc3ccccc3)cc1)nn2[C@@H]1CCCN(C(=O)N2CCC(CCN3CCC(c4ccc5c(c4)C(=O)N(C4CCC(=O)NC4=O)C5=O)CC3)CC2)C1 (stereo partly shown) yields DC50 of 10 to 50 nM

Input Nc1ncnc2c1c(-c1ccc(Oc3ccccc3)cc1)nn2C1CCN(CC2CCN(C(=O)N3CCC(N4CCN(c5ccc6c(c5)C(=O)N(C5CCC(=O)NC5=O)C6=O)CC4)CC3)CC2)CC1 (stereo not shown) . Output DC50: 10 to 50 nM

// DC50 lookup, compound = Nc1ncnc2c1c(-c1ccc(Oc3ccccc3)cc1)nn2[C@@H]1CCCN(C(=O)N2CCC(CCC3CCN(c4ccc5c(c4)C(=O)N(C4CCC(=O)NC4=O)C5=O)CC3)CC2)C1 (stereo partly shown) , result: < 10 nM

Lab note: measured DC50 of Nc1ncnc2c1c(-c1ccc(Oc3ccccc3)cc1)nn2[C@@H]1CCCN(C(=O)N2CCN(CCCC3CCN(c4ccc5c(c4)C(=O)N(C4CCC(=O)NC4=O)C5=O)CC3)CC2)C1 (stereo partly shown) was > 50 nM

The compound identified as Nc1ncnc2c1c(-c1ccc(Oc3ccccc3)cc1)nn2[C@@H]1CCCN(C2CCN(CCCC3CCN(c4ccc5c(c4)C(=O)N(C4CCC(=O)NC4=O)C5=O)CC3)CC2)C1 (stereo partly shown) registered its DC50 at > 50 nM

Sure, the documented DC50 for Nc1ncnc2c1c(-c1ccc(Oc3ccccc3)cc1)nn2[C@@H]1CCCN(C2CCN(C(=O)N3CCC(CN4CCC(c5ccc6c(c5)C(=O)N(C5CCC(=O)NC5=O)C6=O)CC4)CC3)CC2)C1 (stereo partly shown) is 10 to 50 nM

// DC50 value for Nc1ncnc2c1c(-c1ccc(Oc3ccccc3)cc1)nn2C1CCN(CCOCCN2CCN(c3ccc4c(c3)CN(C3CCC(=O)NC3=O)C4=O)CC2)CC1 (stereo not shown) : 10 to 50 nM

----------
biological target: BTK (Homo sapiens, UniProt Q06187); experiment: Degradation of BTK protein in Namalwa cells (Western blot; DC50, Dmax); settings: read-out: Dmax (BTK degradation)
measured-parameter: Dmax

Reported Dmax (BTK (Homo sapiens, UniProt Q06187)) for entry Nc1ncnc2c1c(-c1ccc(Oc3ccccc3)cc1)nn2C1CCN([C@@H]2CCN(CC3CCN(c4ccc5c(c4)C(=O)N(C4CCC(=O)NC4=O)C5=O)CC3)C2)CC1 (some centres unmarked) [Compound 449b] is > 90%

Entry Nc1ncnc2c1c(-c1ccc(Oc3ccccc3)cc1)nn2C1CCN(CC2CCN(/C=C\C(=O)CN3CCN(c4ccc5c(c4)CN(C4CCC(=O)NC4=O)C5=O)CC3)CC2)CC1 (centres unmarked) [Compound 421] ; assay system BTK (Homo sapiens, UniProt Q06187); Dmax recorded at > 90%

// assay BTK (Homo sapiens, UniProt Q06187), entry Nc1ncnc2c1c(-c1ccc(Oc3ccccc3)cc1)nn2[C@@H]1CCCN(C2CN(C(=O)N3CCC(N4CCN(c5ccc6c(c5)CN(C5CCC(=O)NC5=O)C6=O)CC4)CC3)C2)C1 (some centres unmarked) [Compound 482] , Dmax value = > 90%

BTK (Homo sapiens, UniProt Q06187) data for Nc1ncnc2c1c(-c1ccc(Oc3ccccc3)cc1)nn2C1CCN(CC2CN(CC3CN(c4ccc5c(c4)C(=O)N(C4CCC(=O)NC4=O)C5=O)C3)C2)CC1 (centres unmarked) [Compound 441] ; its Dmax: < 50%

# lookup: Nc1ncnc2c1c(-c1ccc(Oc3ccccc3)cc1)nn2[C@@H]1CCCN(CCNC(=O)NC2CCC(=O)NC2=O)C1 (some centres unmarked) [Compound 519] on BTK (Homo sapiens, UniProt Q06187), Dmax = > 75%

----------
target: BTK (Homo sapiens); test: Degradation of BTK protein in Namalwa cells (Western blot; DC50, Dmax)
For each entry below, report its Dmax value.

Field Dmax (BTK (Homo sapiens)), entry Nc1ncnc2c1c(-c1ccc(Oc3ccccc3)cc1)nn2C1CCN(CC2CCN(CCC3CCN(c4ccc5c(c4)C(=O)N(C4CCC(=O)NC4=O)C5=O)CC3)CC2)CC1 (centres unmarked) : > 90%

For the compound NC(=O)c1c(-c2ccc(Oc3ccccc3)cc2)nn2c1NCCC2C1CCN(C2CCN(C(=O)N3CCC(CN4CCC(c5ccc6c(c5)CN(C5CCC(=O)NC5=O)C6=O)CC4)CC3)CC2)CC1 (centres unmarked) , the measured Dmax on BTK (Homo sapiens) was > 90%

Dmax for BTK (Homo sapiens) with input Nc1ncnc2c1c(-c1ccc(Oc3ccccc3)cc1)nn2C1CCN(C2CCN(C(=O)N3CCC(N4CCN(c5ccc6c(c5)CN(C5CCC(=O)NC5=O)C6=O)CC4)CC3)CC2)CC1 (centres unmarked) equals > 90%

// assay BTK (Homo sapiens), entry NC(=O)c1c(-c2ccc(Oc3ccccc3)cc2)nn2c1NCCC2C1CCN(C2CCN(C(=O)N3CCC(CN4CCC(c5ccc6c(c5)C(=O)N(C5CCC(=O)NC5=O)C6=O)CC4)CC3)CC2)CC1 (centres unmarked) , Dmax value = > 90%

// returns Dmax for Nc1ncnc2c1c(-c1ccc(Oc3ccccc3)cc1)nn2C1CCN(C2CCN(C(=O)N3CCC(CCC4CCN(c5ccc6c(c5)C(=O)N(C5CCC(=O)NC5=O)C6=O)CC4)CC3)CC2)CC1 (centres unmarked) with BTK (Homo sapiens); value = > 90%

Entry Nc1ncnc2c1c(-c1ccc(Oc3ccccc3)cc1)nn2C1CCN(C2CCN(CCCN3CCN(c4ccc5c(c4)CN(C4CCC(=O)NC4=O)C5=O)CC3)CC2)CC1 (centres unmarked) ; assay system BTK (Homo sapiens); Dmax recorded at > 90%

Tested on BTK (Homo sapiens): Nc1ncnc2c1c(-c1ccc(Oc3ccccc3)cc1)nn2C1CCN(C2CCN(C(=O)N3CCC(N4CCC(c5ccc6c(c5)C(=O)N(C5CCC(=O)NC5=O)C6=O)CC4)CC3)CC2)CC1 (centres unmarked) . Observed Dmax: > 90%

The value of Dmax recorded for NC(=O)c1c(-c2ccc(Oc3ccccc3)cc2)nn2c1NCCC2C1CCN(CC2CCN(C(=O)N3CCN(CC4CCN(c5ccc6c(c5)CN(C5CCC(=O)NC5=O)C6=O)CC4)CC3)CC2)CC1 (centres unmarked) when tested on BTK (Homo sapiens) reads > 90%

Noted Dmax for NC(=O)c1c(-c2ccc(Oc3ccccc3)cc2)nn2c1NCCC2C1CCN(CC2CCN(C(=O)N3CCC(CN4CCC(c5ccc6c(c5)CN(C5CCC(=O)NC5=O)C6=O)CC4)CC3)CC2)CC1 (centres unmarked) , tested on BTK (Homo sapiens): > 75%

Response field Dmax (BTK (Homo sapiens)) for item Nc1ncnc2c1c(-c1ccc(Oc3ccccc3)cc1)nn2C1CCN(C2CCN(C(=O)N3CCC(CCN4CCN(c5ccc6c(c5)C(=O)N(C5CCC(=O)NC5=O)C6=O)CC4)CC3)CC2)CC1 (centres unmarked) : > 90%

Readout Dmax for NC(=O)c1c(-c2ccc(Oc3ccccc3)cc2)nn2c1NCCC2C1CCN(CCOCCOCCN2CCN(c3ccc4c(c3)CN(C3CCC(=O)NC3=O)C4=O)CC2)CC1 (centres unmarked) , test system BTK (Homo sapiens), was > 90%

Considering NC(=O)c1c(-c2ccc(Oc3ccccc3)cc2)nn2c1NCCC2C1CCN(C(=O)N2CCN(CCN3CCN(c4ccc5c(c4)C(=O)N(C4CCC(=O)NC4=O)C5=O)CC3)CC2)CC1 (centres unmarked) , its Dmax with BTK (Homo sapiens) was recorded as > 90%

Measured Dmax (BTK (Homo sapiens)), entry Nc1ncnc2c1c(-c1ccc(Oc3ccccc3)cc1)nn2C1CCN(C2CCN(C(=O)N3CCN(CC4CCN(c5ccc6c(c5)C(=O)N(C5CCC(=O)NC5=O)C6=O)CC4)CC3)CC2)CC1 (centres unmarked) : > 90%

Entry Nc1ncnc2c1c(-c1ccc(Oc3ccccc3)cc1)nn2C1CCN(CC2CCN(CCCN3CCC(c4ccc5c(c4)CN(C4CCC(=O)NC4=O)C5=O)CC3)CC2)CC1 (centres unmarked) , tested on BTK (Homo sapiens), has a reported Dmax of > 75%

Field Dmax (BTK (Homo sapiens)), entry Nc1ncnc2c1c(-c1ccc(Oc3ccccc3)cc1)nn2C1CCN(C2CCN(C(=O)N3CCC(CCN4CCN(c5ccc6c(c5)CN(C5CCC(=O)NC5=O)C6=O)CC4)CC3)CC2)CC1 (centres unmarked) : > 90%

Param item: NC(=O)c1c(-c2ccc(Oc3ccccc3)cc2)nn2c1NCCC2C1CCN(C2CCN(C(=O)N3CCN(Cc4ccc5c(c4)CN(C4CCC(=O)NC4=O)C5=O)CC3)CC2)CC1 (centres unmarked) ; param system: BTK (Homo sapiens); output Dmax: > 50%

Value sought: Dmax, system BTK (Homo sapiens), item Nc1ncnc2c1c(-c1ccc(Oc3ccccc3)cc1)nn2C1CCN(C2CCN(CC3CCN(c4ccc5c(c4)CN(C4CCC(=O)NC4=O)C5=O)CC3)CC2)CC1 (centres unmarked) . Result: < 50%

Field Dmax (system: BTK (Homo sapiens)) for entry Nc1ncnc2c1c(-c1ccc(Oc3ccccc3)cc1)nn2C1CCN(C2CCN(CCCC3CCN(c4ccc5c(c4)C(=O)N(C4CCC(=O)NC4=O)C5=O)CC3)CC2)CC1 (centres unmarked) = > 75%

// returns Dmax for NC(=O)c1c(-c2ccc(Oc3ccccc3)cc2)nn2c1NCC[C@H]2C1CCN(C2CCN(C(=O)N3CCN(C4CCN(c5ccc6c(c5)C(=O)N(C5CCC(=O)NC5=O)C6=O)CC4)CC3)CC2)CC1 (some centres unmarked) with BTK (Homo sapiens); value = > 90%

Entry NC(=O)c1c(-c2ccc(Oc3ccccc3)cc2)nn2c1NCCC2C1CCN(C2CCN(C(=O)N3CCC(C4CCN(c5ccc6c(c5)CN(C5CCC(=O)NC5=O)C6=O)CC4)CC3)CC2)CC1 (centres unmarked) : Dmax on BTK (Homo sapiens) = > 90%
